Where do the numbers come from? From patent EP4806890A1.

# method: Solubility determination (equilibrium solubility, 24 hrs stirring at room temperature, HPLC)
# Assay type: physicochemical
# measurement.parameters: pH of the filtrate after 24 hrs; FaSSIF
Counter-ions that a name gives are not always drawn.
observable: pH24 hrs
Lab note: jot the number down without any unit.

Answered cases to consult:
// returns reported pH24 hrs for input Cc1c(NC(=O)c2cc(C3CC3)c(CN3CCCC[C@H]3C(=O)O)cn2)cccc1-c1cccc(NC(=O)c2cc(C3CC3)c(CN3CCCC[C@H]3C(=O)O)cn2)c1C [free-form crystalline form F] 6.42

Now the same for Cc1c(NC(=O)c2cc(C3CC3)c(CN3CCCC[C@H]3C(=O)O)cn2)cccc1-c1cccc(NC(=O)c2cc(C3CC3)c(CN3CCCC[C@H]3C(=O)O)cn2)c1C [crystalline form B of disodium salt anhydrate] 6.93

Now the same for Cc1c(NC(=O)c2cc(C3CC3)c(CN3CCCC[C@H]3C(=O)O)cn2)cccc1-c1cccc(NC(=O)c2cc(C3CC3)c(CN3CCCC[C@H]3C(=O)O)cn2)c1C [free-form crystalline form D] 6.43

Now the same for Cc1c(NC(=O)c2cc(C3CC3)c(CN3CCCC[C@H]3C(=O)O)cn2)cccc1-c1cccc(NC(=O)c2cc(C3CC3)c(CN3CCCC[C@H]3C(=O)O)cn2)c1C [free-form crystalline form C] 6.41

Next:
// returns reported pH24 hrs for input Cc1c(NC(=O)c2cc(C3CC3)c(CN3CCCC[C@H]3C(=O)O)cn2)cccc1-c1cccc(NC(=O)c2cc(C3CC3)c(CN3CCCC[C@H]3C(=O)O)cn2)c1C [crystalline form A of disodium salt hydrate] 6.93

---

Here, each record is paired with measured Equilibrium solubility data.
# method: Solubility determination (equilibrium solubility, 24 hrs stirring at room temperature, HPLC)
# Type: physicochemical
# measurement.parameters: pH 1.2, HCl 100 mM; target concentration 2000 µg/mL; 24 hrs
Structures can show the parent of a compound that is named as a salt.
Give just the numeric value; µg/mL need not be written.

Answered cases to consult:
// returns reported Equilibrium solubility for input Cc1c(NC(=O)c2cc(C3CC3)c(CN3CCCC[C@H]3C(=O)O)cn2)cccc1-c1cccc(NC(=O)c2cc(C3CC3)c(CN3CCCC[C@H]3C(=O)O)cn2)c1C [crystalline form A of disodium salt hydrate] 1120

Now the same for Cc1c(NC(=O)c2cc(C3CC3)c(CN3CCCC[C@H]3C(=O)O)cn2)cccc1-c1cccc(NC(=O)c2cc(C3CC3)c(CN3CCCC[C@H]3C(=O)O)cn2)c1C [free-form crystalline form C] 18.92

Now the same for Cc1c(NC(=O)c2cc(C3CC3)c(CN3CCCC[C@H]3C(=O)O)cn2)cccc1-c1cccc(NC(=O)c2cc(C3CC3)c(CN3CCCC[C@H]3C(=O)O)cn2)c1C [free-form crystalline form D] 281.84

Next:
// returns reported Equilibrium solubility for input Cc1c(NC(=O)c2cc(C3CC3)c(CN3CCCC[C@H]3C(=O)O)cn2)cccc1-c1cccc(NC(=O)c2cc(C3CC3)c(CN3CCCC[C@H]3C(=O)O)cn2)c1C [free-form crystalline form F] 244.49

---

# method: Solubility determination (equilibrium solubility, 24 hrs stirring at room temperature, HPLC)
# Format: physicochemical
# measurement.parameters: pH of the filtrate after 24 hrs; pH 4.7, 50 mM acetic acid buffer
Where a name gives a salt, the structure may show the parent alone.
Here, each record is paired with measured pH24 hrs data.
Lab note: jot the number down without any unit.

// returns reported pH24 hrs for input Cc1c(NC(=O)c2cc(C3CC3)c(CN3CCCC[C@H]3C(=O)O)cn2)cccc1-c1cccc(NC(=O)c2cc(C3CC3)c(CN3CCCC[C@H]3C(=O)O)cn2)c1C [free-form crystalline form F] 4.68

Now the same for Cc1c(NC(=O)c2cc(C3CC3)c(CN3CCCC[C@H]3C(=O)O)cn2)cccc1-c1cccc(NC(=O)c2cc(C3CC3)c(CN3CCCC[C@H]3C(=O)O)cn2)c1C [crystalline form A of disodium salt hydrate] 4.61

Now the same for Cc1c(NC(=O)c2cc(C3CC3)c(CN3CCCC[C@H]3C(=O)O)cn2)cccc1-c1cccc(NC(=O)c2cc(C3CC3)c(CN3CCCC[C@H]3C(=O)O)cn2)c1C [free-form crystalline form C] 4.77

Next:
// returns reported pH24 hrs for input Cc1c(NC(=O)c2cc(C3CC3)c(CN3CCCC[C@H]3C(=O)O)cn2)cccc1-c1cccc(NC(=O)c2cc(C3CC3)c(CN3CCCC[C@H]3C(=O)O)cn2)c1C [crystalline form B of disodium salt anhydrate] 4.92

Now the same for Cc1c(NC(=O)c2cc(C3CC3)c(CN3CCCC[C@H]3C(=O)O)cn2)cccc1-c1cccc(NC(=O)c2cc(C3CC3)c(CN3CCCC[C@H]3C(=O)O)cn2)c1C [free-form crystalline form D] 4.73

---

# method: Stability determination (thermal stability and photostability, HPLC purity, appearance, XRPD)
# Format: physicochemical
# measurement.parameters: Aluminum foil light exposure control, 9.2 days
Counter-ions that a name gives are not always drawn.
observable: Purity (%)
Give just the numeric value; % need not be written.

// returns reported Purity (%) for input Cc1c(NC(=O)c2cc(C3CC3)c(CN3CCCC[C@H]3C(=O)O)cn2)cccc1-c1cccc(NC(=O)c2cc(C3CC3)c(CN3CCCC[C@H]3C(=O)O)cn2)c1C [free-form crystalline form F] 99.39

Next:
// returns reported Purity (%) for input Cc1c(NC(=O)c2cc(C3CC3)c(CN3CCCC[C@H]3C(=O)O)cn2)cccc1-c1cccc(NC(=O)c2cc(C3CC3)c(CN3CCCC[C@H]3C(=O)O)cn2)c1C [crystalline form A of disodium salt hydrate] 99.51

Now the same for Cc1c(NC(=O)c2cc(C3CC3)c(CN3CCCC[C@H]3C(=O)O)cn2)cccc1-c1cccc(NC(=O)c2cc(C3CC3)c(CN3CCCC[C@H]3C(=O)O)cn2)c1C [free-form crystalline form D] 98.26

Now the same for Cc1c(NC(=O)c2cc(C3CC3)c(CN3CCCC[C@H]3C(=O)O)cn2)cccc1-c1cccc(NC(=O)c2cc(C3CC3)c(CN3CCCC[C@H]3C(=O)O)cn2)c1C [crystalline form B of disodium salt anhydrate] 89.50

Now the same for Cc1c(NC(=O)c2cc(C3CC3)c(CN3CCCC[C@H]3C(=O)O)cn2)cccc1-c1cccc(NC(=O)c2cc(C3CC3)c(CN3CCCC[C@H]3C(=O)O)cn2)c1C [free-form crystalline form C] 98.51

---

# method: Hygroscopic behavior test by dynamic vapor sorption (DVS)
# Format: physicochemical
# measurement.parameters: Relative humidity 10.0 % at 25 °C
Where a name gives a salt, the structure may show the parent alone.
Here, each record is paired with measured Hygroscopic weight increase (%) data.
Give just the numeric value; % need not be written.

// returns reported Hygroscopic weight increase (%) for input Cc1c(NC(=O)c2cc(C3CC3)c(CN3CCCC[C@H]3C(=O)O)cn2)cccc1-c1cccc(NC(=O)c2cc(C3CC3)c(CN3CCCC[C@H]3C(=O)O)cn2)c1C [free-form crystalline form F] 0.18

Now the same for Cc1c(NC(=O)c2cc(C3CC3)c(CN3CCCC[C@H]3C(=O)O)cn2)cccc1-c1cccc(NC(=O)c2cc(C3CC3)c(CN3CCCC[C@H]3C(=O)O)cn2)c1C [free-form crystalline form C] 0.50

Now the same for Cc1c(NC(=O)c2cc(C3CC3)c(CN3CCCC[C@H]3C(=O)O)cn2)cccc1-c1cccc(NC(=O)c2cc(C3CC3)c(CN3CCCC[C@H]3C(=O)O)cn2)c1C [free-form crystalline form D] 0.40

Now the same for Cc1c(NC(=O)c2cc(C3CC3)c(CN3CCCC[C@H]3C(=O)O)cn2)cccc1-c1cccc(NC(=O)c2cc(C3CC3)c(CN3CCCC[C@H]3C(=O)O)cn2)c1C [crystalline form A of disodium salt hydrate] 2.40

---

Here, each record is paired with measured pH24 hrs data.
# method: Solubility determination (equilibrium solubility, 24 hrs stirring at room temperature, HPLC)
# Type: physicochemical
# measurement.parameters: pH of the filtrate after 24 hrs; pH 1.2, HCl 100 mM
Counter-ions that a name gives are not always drawn.
Lab note: jot the number down without any unit.

// returns reported pH24 hrs for input Cc1c(NC(=O)c2cc(C3CC3)c(CN3CCCC[C@H]3C(=O)O)cn2)cccc1-c1cccc(NC(=O)c2cc(C3CC3)c(CN3CCCC[C@H]3C(=O)O)cn2)c1C [crystalline form B of disodium salt anhydrate] 0.95

Next:
// returns reported pH24 hrs for input Cc1c(NC(=O)c2cc(C3CC3)c(CN3CCCC[C@H]3C(=O)O)cn2)cccc1-c1cccc(NC(=O)c2cc(C3CC3)c(CN3CCCC[C@H]3C(=O)O)cn2)c1C [free-form crystalline form D] 1.16

Now the same for Cc1c(NC(=O)c2cc(C3CC3)c(CN3CCCC[C@H]3C(=O)O)cn2)cccc1-c1cccc(NC(=O)c2cc(C3CC3)c(CN3CCCC[C@H]3C(=O)O)cn2)c1C [free-form crystalline form C] 1.30

Now the same for Cc1c(NC(=O)c2cc(C3CC3)c(CN3CCCC[C@H]3C(=O)O)cn2)cccc1-c1cccc(NC(=O)c2cc(C3CC3)c(CN3CCCC[C@H]3C(=O)O)cn2)c1C [free-form crystalline form F] 1.15

Now the same for Cc1c(NC(=O)c2cc(C3CC3)c(CN3CCCC[C@H]3C(=O)O)cn2)cccc1-c1cccc(NC(=O)c2cc(C3CC3)c(CN3CCCC[C@H]3C(=O)O)cn2)c1C [crystalline form A of disodium salt hydrate] 1.01
